Origin of values: the nanobody polyreactivity screen of Harvey et al. (2022)

Test: yeast display, Sf9 membrane polyspecificity reagent, FACS + sequencing; frameworks hold sequencing errors
propertyLabel: polyreactivity (PSR sort gate)

Consider the worked cases shown below.
{"residueCodes": "QVQLVESGGGLVQAGGSLRLSCAASGRTFNYSAMGWYRQAPGTERELVAAISSSGGRTYYADSVKGRFTISRDNAKITVYLQMNSLKPEDTAVYYCAADSFYYRPEYDYWGQGTQVTVSS", "polyreactivity (PSR sort gate)": "low polyreactivity"}
{"residueCodes": "QVQLVESAGGLVQAGGSLRLSCAASGRTFTCNAMGWYRQAPGKERELVAAISYSGGSTYYADSVKGRFTISRDNAKNTVYLQMNSLKPEDTAVYNCAVLGTPYGLNDYWGQGTQVTVSS", "polyreactivity (PSR sort gate)": "high polyreactivity"}
{"residueCodes": "QVQLVESGGGLVQAGGSLRLICAASGFIFGLNAIGWYRQAPGKERELVAAIRSASSTNYADSVKGRFTISRDNAKNTVYLQMNSLKPEDTAVYYCAAEDFTRQFEYWGQGTQVTVSS", "polyreactivity (PSR sort gate)": "low polyreactivity"}
{"residueCodes": "QVQLVESGGGLVQAGGSLRLSCAASGRIFGLNAMGWYRQAPGKEREIVAAIRWRGGSTYYADSVKGLFTISRDNANNNVYLLMNSLKPEDTAVYYCAADRNLGVSRYGYWGQGTQVNVSS", "polyreactivity (PSR sort gate)": "high polyreactivity"}
{"residueCodes": "QVQLVESGGGLVQAGGSLRLSCAASGSTFTHYAMGWYIQAPWKERELVAGISWGGSSTYYADSVKGRFTISRDNAKNTVYLQMNSLKPEDTAVYYCAAGRRGSYPGGYGYWGQGTQVTVSS", "polyreactivity (PSR sort gate)": "low polyreactivity"}
{"residueCodes": "QVQLVESGGGLVQAGGSLRLSSASSGFTFTFYAMGWYRQEPGKERELVAAISKGGGSTSYADSVKGRFTISRDNAKNTVYLQMNCLKPEETAVYYCAARYYYSRSRLYYYWGQGTQVTVSS", "polyreactivity (PSR sort gate)": "high polyreactivity"}
{"residueCodes": "QVQLVESGGGLVQAGGRLRLSCAASGSTLSANAMGWYSPAPGKERELVAAISRRSGGTYYADSVKGRFTISRDNAKNSVYLQMNSLKPEDTAVYYCIKVLKDPHTWGWVDYDYCGQGTQVTVSS", "polyreactivity (PSR sort gate)": "high polyreactivity"}
{"residueCodes": "QVQLVESGGGLVQAGGSLRLSCAASGLTFGNYSKGWYRQAPGKERELVAAISKRGGTTYYADSVKGRFTISRDNAKNTVYLQMNSLKPEDTAVYYCAAQVGRGYEVYPVYKYGYWGQGTQVTVSS", "polyreactivity (PSR sort gate)": "high polyreactivity"}

Note to self: polyreactivity (PSR sort gate) recorded for "QVQLVESGGGLVQAGGSLRLSCAASGRIFYRNAMGWYRQAPGKERELVAAIRGGDNTYYADSVKGRFTISRDNAKNTVYLQMNSLKPEDTAVYYCAARSYRLDSYYWGQGTQVTVSS" was high polyreactivity

Note to self: polyreactivity (PSR sort gate) recorded for "QVQLVESGGGLVQARGSLRLSCAASLLTFGKNDMGWYRQAPGKEREFVAAITSRGGYTYYADSVKGRFTISRDNAKNTVYSQMNSLKPEDTAVYYCNREYKRPSQRTEHSYWGQGTQVTVSS" was low polyreactivity

Note to self: polyreactivity (PSR sort gate) recorded for "QVQIVESVGGLDQAGGSLRLSCAASGSKFVYYAIGSYRQAPAKERELVAAIDVSDGGTYYADSVKVRFSISRDNAKNTVYLQMNSLKPEVTAVYYCAADQGIDVPFICYDYWGQGTQVTVSS" was high polyreactivity

Note to self: polyreactivity (PSR sort gate) recorded for "QVQLVESGGGLVQAGGSLRLSCAATGYTFFRNTMGWYRQAPGKESELVAVITKSGGSTYYADSVKWRFTISRDNAKNTVYLHMNSLIPEDTAVYYCNAVTALRNTEYNYWGQGTQVTVSS" was high polyreactivity

Note to self: polyreactivity (PSR sort gate) recorded for "QVQLVESGGGLVQAGGSLRLSCAASGFIFGYYAMGGYRQAPGKERELVAAISSSGTRTYYADSVKGRFTISRDNAKNTVYLQMNSLKPEDTAVYYCAVTTAYSGAFYTGEYWGQGTQVTVSS" was high polyreactivity

Note to self: polyreactivity (PSR sort gate) recorded for "QVQLVESGGGLVQAGGSLRLSCAASGRIIWGYAMGWYRQAPGKERELVAGITYSGGSTYYADSVKGRFTISRDNAKNTVYLQMNSLKPEDTAVYYCAAAKSYRSGSWYEYWGQGTQVTVSS" was high polyreactivity
